Target system: Protein phosphatase EYA2 (Homo sapiens) (UniProt O00167)
Sequence (O00167 whole entry, looked up): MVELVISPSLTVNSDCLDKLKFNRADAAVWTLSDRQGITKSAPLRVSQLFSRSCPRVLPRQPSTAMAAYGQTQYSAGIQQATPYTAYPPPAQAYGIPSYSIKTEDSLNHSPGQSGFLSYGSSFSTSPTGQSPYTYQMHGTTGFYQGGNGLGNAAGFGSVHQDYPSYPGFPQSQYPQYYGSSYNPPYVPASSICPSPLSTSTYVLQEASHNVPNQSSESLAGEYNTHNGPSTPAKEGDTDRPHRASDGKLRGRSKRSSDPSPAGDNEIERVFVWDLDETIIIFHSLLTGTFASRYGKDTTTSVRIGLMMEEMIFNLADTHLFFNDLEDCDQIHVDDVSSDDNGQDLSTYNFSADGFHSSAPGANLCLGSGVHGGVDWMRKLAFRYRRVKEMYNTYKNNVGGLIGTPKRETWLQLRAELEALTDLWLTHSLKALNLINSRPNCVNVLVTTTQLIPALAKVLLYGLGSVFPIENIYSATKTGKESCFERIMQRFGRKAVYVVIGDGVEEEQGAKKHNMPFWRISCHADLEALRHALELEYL
Assay text: qHTS for Inhibitors of the Phosphatase Activity of Eya2: Confirmatory Assay for Cherry-picked Compounds; further: nearly all actives have a fitted effect of over 65% in size
Particulars: purified EYA2 phosphatase activity, qHTS confirmation; series mostly up to 46.1 µM
The whole screen tested about 1,300 compounds, of which about 460 (35%) were called active. Roughly 39% stayed inconclusive and do not appear here. The call rests on the fitted dose curve; in most records, active means well fitted inhibition curve with a large enough effect; inconclusive means small, poorly fitted or top-dose-only effect; inactive means flat fitted curve, though single readings scatter. Some of the results follow.
Could you please pick one outcome from this set? 1 (active), -1 (inactive)

Cc1cc2oc(C(=O)N(Cc3ccc(N(C)C)cc3)CC3CCCO3)c(C)c2cc1C (stereo unspecified) = 1
Cc1cc(NC(=O)c2cccc(N3C(=O)CCC3=O)c2)no1 = -1
Cc1ccc(C(=O)Oc2ccc(N3C(=O)CCC3=O)c(C)c2)cc1 = 1
O=C(O)C1=NN(c2cc(Cl)c(S(=O)(=O)O)cc2Cl)C(=O)C1 = 1

Ask: Query: recorded result category for CC(C)OCCCNC(=O)c1ccccc1NC(=O)C1=CSCCO1 in this test
Reply: -1

Ask: Outcome logged for CCOc1ccc(NC(=O)COc2ccc3c(c2)CCC3)cc1OC in this assay:
Reply: -1

Ask: I'd appreciate the recorded outcome for Cc1ccc(C(=O)Oc2ccc3ccc(=O)oc3c2)cc1 from this test.
Reply: 1

Ask: Short answer needed: outcome of this test for Cc1cc2oc(C(=O)N3CCN(Cc4ccccc4)CC3)c(C)c2cc1C ?
Reply: -1

Ask: Outcome logged for Oc1[nH]c2ccccc2c1N=Nc1nc2ccccc2s1 in this assay:
Reply: -1

Ask: What was the test verdict on Cc1ccccc1C(=O)NC(=S)Nc1ccccc1N1CCCC1 ?
Reply: 1

Ask: Hi, do you know how CC(=O)Oc1ccccc1C(=O)Oc1ccc(/C=N/n2cnnc2)cc1 came out in this test?
Reply: 1

* * *

Target system: Protein phosphatase EYA2 (Homo sapiens)
Assay text: qHTS for Inhibitors of the Phosphatase Activity of Eya2: Confirmatory Assay for Cherry-picked Compounds; further: nearly all actives have a fitted effect of over 65% in size
Particulars: purified EYA2 phosphatase activity, qHTS confirmation; series mostly up to 46.1 µM
In all, about 1,300 compounds went through this assay and about 460 (35%) were called active. Not shown: some 39% with an inconclusive outcome. Calls come from the whole dose curve; as a rule, active = well fitted inhibition curve with a large enough effect; inconclusive = small, poorly fitted or top-dose-only effect; inactive = flat fitted curve, though single readings scatter. Some of the results follow.
Form entry, call: pick from active, inactive

The examples below pair each entry with its known result.
O=C(CCS(=O)(=O)c1ccc(F)cc1)Nc1nc(-c2ccccn2)cs1 = active
COC(=O)c1ccc(OC(=O)c2cccs2)cc1 = active
O=C(CSc1ccc(-c2ccccn2)nn1)Nc1cccc(F)c1 = active
Cc1c(CCO)c(=O)n(-c2ccccc2)n1S(=O)(=O)c1c(Cl)cc(Cl)cc1Cl = active

Ask: Test call for this compound, please: Nc1ccc2c(c1Cl)C(=O)c1ccc(N)c(Cl)c1C2=O
Reply: active

Ask: Just curious, what result did COc1ccc(CCn2c(=N)c(C(=O)NCc3ccco3)cc3c(=O)n4ccccc4nc32)cc1OC get here?
Reply: active

Ask: Outcome? Cc1nc2ncccn2c1-c1csc(Nc2ccccc2)n1
Reply: active

Ask: Call for entry CCCCn1nc(C(=O)Nc2ccc3c(c2)OCO3)c2ccccc2c1=O :
Reply: active

Ask: Any idea what this test logged for CC1(C)CC(=O)c2c(oc3ccc(NS(=O)(=O)c4cccc5cccnc45)cc23)C1 ?
Reply: inactive

Ask: What is the recorded call for this compound in the test? COc1ccc(N(CC(=O)Nc2cccc(C(C)=O)c2)S(=O)(=O)c2ccc(NC(C)=O)cc2)cc1
Reply: inactive

Ask: Short answer needed: outcome of this test for COc1ccc(CC(=O)Nc2cccc(Cl)c2C)cc1S(=O)(=O)N1CCOCC1 ?
Reply: inactive

Ask: Short answer needed: outcome of this test for O=C(Nc1cc([N+](=O)[O-])ccc1O)c1cccc(C(=O)Nc2cc([N+](=O)[O-])ccc2O)c1 ?
Reply: active

Ask: // return assay outcome for Cc1cc(OC(=O)c2ccc(Cl)cc2)cc(=O)n1C
Reply: active

Ask: In this assay, the call recorded for CC1C=CCC2C(=O)N(c3ccc(OC(=O)c4ccco4)cc3)C(=O)C12 (stereo not given) was what?
Reply: active

Ask: Assay outcome for O=C(CNC(=O)c1cccs1)OCC(=O)c1ccc(Cl)cc1 : what was it?
Reply: inactive

Ask: Please state the recorded outcome for this compound: c1ccc2cc(CSCc3nc4ccccc4[nH]3)ccc2c1
Reply: inactive

Ask: Hi, sorry to bother you, what did the test record for Oc1c(Br)cc(Br)cc1CNc1cccc2cccnc12 ?
Reply: active

Ask: Which outcome did this test record for the compound CCC(=O)c1cn(CC(=O)Nc2c(C)cccc2C)c2ccccc12 ?
Reply: inactive

Ask: Assay result, entry CC(=O)Nc1ccc(S(=O)(=O)Nc2cccc3cccnc23)cc1 — outcome?
Reply: active

Ask: Test call for this compound, please: CSCCC(=O)Nc1nc(-c2ccccn2)cs1
Reply: active

* * *

Target system: Protein phosphatase EYA2 (Homo sapiens) (UniProt O00167)
Assay text: qHTS for Inhibitors of the Phosphatase Activity of Eya2: Confirmatory Assay for Cherry-picked Compounds; further: nearly all actives have a fitted effect of over 65% in size; further: potency means the concentration at half of the fitted maximal effect
Particulars: purified EYA2 phosphatase activity, qHTS confirmation; series mostly up to 46.1 µM
The whole screen tested about 1,300 compounds, of which about 460 (35%) were called active. Not shown: some 39% with an inconclusive outcome. Some of the results follow.
Readout kind: Potency

Before answering, review these 4 worked examples.
CCn1c2ccccc2c2cc(NC(=O)COC(=O)c3ccc(NC(=O)CC#N)cc3)ccc21 = inactive
COc1cc(/C=C2/C=Cc3ccccc32)ccc1N(C)C = 6.75 µM (active)
CN(C)c1ccc(N=Nc2ccnc3ccccc23)cc1 = 3.38 µM (active)
CCC(C)c1ccc2oc(-c3ccc(NC(=O)c4ncn[nH]4)cc3)nc2c1 (stereo unspecified) = 15.1 µM (active)

Ask: Provide value of Potency for this record tested with Protein phosphatase EYA2 (Homo sapiens) (UniProt O00167): COCc1nnc(NC(=O)c2ccc(S(=O)(=O)N3CCOCC3)cc2)o1
Reply: inactive

Ask: Request: Potency, test system Protein phosphatase EYA2 (Homo sapiens) (UniProt O00167), entry Cc1nc(C)c(-c2csc(Nc3ccc(O)c(C(=O)O)c3)n2)s1
Reply: 19 µM (active)

* * *

Target system: Protein phosphatase EYA2 (Homo sapiens) (UniProt O00167)
Assay text: qHTS for Inhibitors of the Phosphatase Activity of Eya2: Confirmatory Assay for Cherry-picked Compounds; further: nearly all actives have a fitted effect of over 65% in size; further: potency means the concentration at half of the fitted maximal effect
Particulars: purified EYA2 phosphatase activity, qHTS confirmation; series mostly up to 46.1 µM
The campaign covered roughly 1,300 compounds. About 460 (35%) were called active. Roughly 39% stayed inconclusive and do not appear here. Some of the results follow.
Each entry below lists one item and its recorded Potency value.

// solved cases for Potency follow
CNc1ccc(/C=C2\C=Cc3ccccc32)cc1OC = 7.57 µM (active)
N#Cc1c2nc3ccccc3nc2n2cc(NC(=O)c3ccc(F)cc3)ccc12 = 4.26 µM (active)

Now, please, on to the next compound.
Ask: Query: Potency; subject: CN(C)c1ccc(/C=C2\C=Cc3ccccc32)cc1[N+](=O)[O-]
Reply: 6.75 µM (active)

* * *

Target system: Protein phosphatase EYA2 (Homo sapiens)
Assay text: qHTS for Inhibitors of the Phosphatase Activity of Eya2: Confirmatory Assay for Cherry-picked Compounds; further: nearly all actives have a fitted effect of over 65% in size
Particulars: purified EYA2 phosphatase activity, qHTS confirmation; series mostly up to 46.1 µM
Out of some 1,300 compounds screened, about 460 (35%) were called active. Not shown: some 39% with an inconclusive outcome. Calls follow the shape of the dose curve; as a rule, active = well fitted inhibition curve with a large enough effect; inconclusive = small, poorly fitted or top-dose-only effect; inactive = flat fitted curve, though single readings scatter. Some of the results follow.
Hi there, use one of these labels in your reply, thanks! y (active), n (inactive)

Example results:
COC1=C(Nc2ccc(OC)cc2)C(=O)c2ccccc2C1=O = y
Cc1cc(Br)c(NC(=O)c2ccccc2[N+](=O)[O-])cc1C = n
O=C(NNC(=O)c1cc2cc(Br)ccc2oc1=O)c1ccc(O)cc1 = n

Ask: What classification did O=C(Oc1ccc(C(=S)N2CCCCC2)cc1)c1ccccc1F end up with in this test?
Reply: y

* * *

Target system: Protein phosphatase EYA2 (Homo sapiens)
Assay text: qHTS for Inhibitors of the Phosphatase Activity of Eya2: Confirmatory Assay for Cherry-picked Compounds; further: nearly all actives have a fitted effect of over 65% in size
Particulars: purified EYA2 phosphatase activity, qHTS confirmation; series mostly up to 46.1 µM
Among all 1,300 compounds or so, about 460 (35%) were called active. Inconclusive results (about 39%) are left out. Calls come from the whole dose curve; as a rule, active = well fitted inhibition curve with a large enough effect; inconclusive = small, poorly fitted or top-dose-only effect; inactive = flat fitted curve, though single readings scatter. Some of the results follow.
Please state which outcome applies, choosing from active, inactive

These solved cases illustrate the format of a correct answer.
CCC(=O)NC(c1cccs1)c1cc(Cl)c2cccnc2c1O (stereo not given) = active
CCCC(=O)NC(=S)Nc1sc2c(c1C(N)=O)CCC2 = inactive
O=C(O)c1c(Br)c(Br)c(Br)c(Br)c1C1c2ccc(O)cc2Oc2cc(O)ccc21 = active
Clc1ccc(-c2ccc(CNCc3ccccn3)o2)cc1 = active
COc1ccc(CNC(=O)C2CCN(S(=O)(=O)c3ccc4nc5c(c(C(=O)O)c4c3)CCCC5)CC2)cc1 = active
Nc1n[nH]c2cc(=O)n(-c3ccc(Cl)cc3)nc12 = inactive
O=C(NC1=C(Nc2ccc(F)cc2)C(=O)c2ccccc2C1=O)c1ccc(Cl)cc1 = inactive
O=C(O)c1ccccc1NC(c1ccccc1)c1ccc2cccnc2c1O (stereo not given) = active
COc1ccc(S(=O)(=O)N2CCN(C(=O)c3cc4c(s3)CCC4)CC2)cc1 = inactive
CN1N/C(=C\c2ccccc2)N=C2C(=O)N(C)C(=O)N=C21 = active

Ask: # lookup: test call for COc1ccc(-c2cn(Cc3ccc4c(c3)C(=O)c3ccccc3C4=O)nn2)cc1
Reply: inactive

Ask: Per the records of this test, what outcome belongs to CN=c1scc(C)n1/N=C/c1ccc2c(c1)OCO2 ?
Reply: inactive

Ask: Record request — test call for Cc1ccc(Nc2nc(NCCO)nc3c2cnn3C)cc1Cl
Reply: active

Ask: Test call, this molecule: Clc1cccc(-c2ccc(CNCc3ccccn3)o2)c1
Reply: active

Ask: For CS(=O)(=O)c1ccc2nc(NC(=O)c3ccccc3Cl)sc2c1 , what call appears in the results of this test?
Reply: inactive
